Would you kindly list pKd for each of these binders?
molecular target: Stingin-1; experiment: SPR
pKd field: float, defined as -log10 of concentration (mol/L).

In: Dear colleague, I am looking for the recorded pKd of the following binder: MDM2 25-109 (protein) ETLVRPKPLLLKLLKSVGAQKDTYTMKEVLFYLGQYIMTKRLYDEKQQHIVYCSNDLLGDLFGVPSFSVKEHRKIYTMIYRNLVV
Out: 7.60

In: Can you share its pKd? I mean this binder: MDMX 24-108 (protein) INQVRPKLPLLKILHAAGAQGEMFTVKEVMHYLGQYIMVKQLYDQQEQHMVYCGGDLLGELLGRQSFSVKDPSPLYDMLRKNLVT
Out: 7.94
